target: Cathepsin S (Homo sapiens, UniProt P25774); test: Inhibition of human recombinant cathepsin S by fluorescence assay
Sequence (P25774 whole entry): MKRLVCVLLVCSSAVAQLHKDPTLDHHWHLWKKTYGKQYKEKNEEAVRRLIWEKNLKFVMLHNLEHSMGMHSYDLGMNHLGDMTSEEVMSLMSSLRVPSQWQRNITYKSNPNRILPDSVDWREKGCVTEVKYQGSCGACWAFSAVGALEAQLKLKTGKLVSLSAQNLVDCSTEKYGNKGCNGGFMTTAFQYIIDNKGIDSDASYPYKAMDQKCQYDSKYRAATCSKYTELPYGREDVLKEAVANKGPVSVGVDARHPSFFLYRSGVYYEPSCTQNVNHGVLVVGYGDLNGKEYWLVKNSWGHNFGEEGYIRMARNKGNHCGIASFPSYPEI
PROPERTY_MEASURED: IC50

> print(dat)
                            compound.string   result
1              CCCc1cc(C2CCCCCCC2)nc(C#N)n1  2240 nM
2               CCCc1cc(C2CCCCCC2)nc(C#N)n1  1300 nM
3          CCCc1cc(-c2cccc(C#N)c2)nc(C#N)n1   191 nM
4      CCCc1cc(-c2cccc(C3CCCC3)c2)nc(C#N)n1   155 nM
5     CCCc1cc(-c2cccc(C(C)(C)C)c2)nc(C#N)n1   191 nM
6            CCCc1cc(-c2cccc(C)c2)nc(C#N)n1  1300 nM
7  CC(C)(C)NCCCc1cc(-c2cccc(C(F)(F)F)c2)nc(C#N)n1    20 nM

* * *

Target: Cathepsin K (Homo sapiens, UniProt P43235)
Sequence (P43235 whole entry): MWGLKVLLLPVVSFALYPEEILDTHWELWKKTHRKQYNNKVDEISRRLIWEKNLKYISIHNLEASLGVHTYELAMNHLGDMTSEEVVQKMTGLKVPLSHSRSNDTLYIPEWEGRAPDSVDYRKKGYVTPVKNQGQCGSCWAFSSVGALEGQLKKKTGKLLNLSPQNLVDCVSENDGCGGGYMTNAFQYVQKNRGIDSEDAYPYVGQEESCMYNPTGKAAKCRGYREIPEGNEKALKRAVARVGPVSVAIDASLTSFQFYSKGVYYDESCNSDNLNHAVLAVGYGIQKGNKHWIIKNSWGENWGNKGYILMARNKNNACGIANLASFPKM
Test: Inhibition of human recombinant cathepsin K by fluorescence assay
Labelling: IC50 reported below 100 nM becomes True; at or above becomes False.

> print(dat)
                             compound.string                         system.under.test  group
 1      CCCc1cc(-c2cccc(C3CCCC3)c2)nc(C#N)n1  Cathepsin K (Homo sapiens, UniProt P43235)  False
 2               CCCc1cc(-c2ccccc2)nc(C#N)n1  Cathepsin K (Homo sapiens, UniProt P43235)  False
 3   CCCc1cc(-c2cccc(S(C)(=O)=O)c2)nc(C#N)n1  Cathepsin K (Homo sapiens, UniProt P43235)  False
 4              CCCc1cc(C2CCCCCCC2)nc(C#N)n1  Cathepsin K (Homo sapiens, UniProt P43235)   True
 5  CCCc1cc(-c2ccc(Cl)c(C(F)(F)F)c2)nc(C#N)n1  Cathepsin K (Homo sapiens, UniProt P43235)   True
 6  CC(C)(C)NCCCc1cc(-c2cccc(C(F)(F)F)c2)nc(C#N)n1  Cathepsin K (Homo sapiens, UniProt P43235)   True
 7            CCCc1cc(-c2cccc(C)c2)nc(C#N)n1  Cathepsin K (Homo sapiens, UniProt P43235)  False
 8          N#Cc1nc(NC2CCCCC2)nc(N2CCNCC2)n1  Cathepsin K (Homo sapiens, UniProt P43235)   True
 9     CCCc1cc(-c2ccc(C(F)(F)F)cc2)nc(C#N)n1  Cathepsin K (Homo sapiens, UniProt P43235)  False
10          CCCc1cc(-c2cccc(C#N)c2)nc(C#N)n1  Cathepsin K (Homo sapiens, UniProt P43235)  False
11     CCCc1cc(-c2cccc(C(C)(C)C)c2)nc(C#N)n1  Cathepsin K (Homo sapiens, UniProt P43235)   True
12       CCCc1cc(-c2ccccc2C(F)(F)F)nc(C#N)n1  Cathepsin K (Homo sapiens, UniProt P43235)  False
13               CCCc1cc(C2CCCCCC2)nc(C#N)n1  Cathepsin K (Homo sapiens, UniProt P43235)   True
14  N#Cc1nc(CCCN2CCCCC2)cc(-c2cccc(C(F)(F)F)c2)n1  Cathepsin K (Homo sapiens, UniProt P43235)   True
15  CCC(CC)NCCCc1cc(-c2cccc(C(F)(F)F)c2)nc(C#N)n1  Cathepsin K (Homo sapiens, UniProt P43235)   True
16   CCCc1cc(-c2cccc(C(F)(F)F)c2Cl)nc(C#N)n1  Cathepsin K (Homo sapiens, UniProt P43235)  False
17         CCCc1cc(-c2ccc(C)c(C)c2)nc(C#N)n1  Cathepsin K (Homo sapiens, UniProt P43235)   True
18                CCCc1cc(C2CCCCC2)nc(C#N)n1  Cathepsin K (Homo sapiens, UniProt P43235)  False

* * *

Entries and their IC50 values follow.
molecular target: UniProt P07858; assay: Inhibition of human recombinant cathepsin B by fluorescence assay
PROPERTY_MEASURED: IC50 (µM)

> print(dat)
                            compound.string  system.under.test  inequality.symbol  result.number
1  CC(C)(C)NCCCc1cc(-c2cccc(C(F)(F)F)c2)nc(C#N)n1     UniProt P07858                  =           6.46
2  CCC(CC)NCCCc1cc(-c2cccc(C(F)(F)F)c2)nc(C#N)n1     UniProt P07858                  =           2.34
3       N#Cc1nc(CCCN2CCCCC2)cc(C2CCCCCC2)n1     UniProt P07858                  >             10
4          N#Cc1nc(NC2CCCCC2)nc(N2CCNCC2)n1     UniProt P07858                  =           0.52
5  N#Cc1nc(CCCN2CCCCC2)cc(-c2cccc(C(F)(F)F)c2)n1     UniProt P07858                  =            4.2

* * *

assay: Oral bioavailability in Sprague-Dawley rat at 10 mg/kg; format: ADME, organism-based; details: in vivo
PROPERTY_MEASURED: bioavailability (%)

> print(dat)
                            compound.string  property.measured  result.number
1          N#Cc1nc(NC2CCCCC2)nc(N2CCNCC2)n1    bioavailability              6
2  CCC(CC)NCCCc1cc(-c2cccc(C(F)(F)F)c2)nc(C#N)n1    bioavailability             52
3  CC(C)(C)NCCCc1cc(-c2cccc(C(F)(F)F)c2)nc(C#N)n1    bioavailability             61
4  N#Cc1nc(CCCN2CCCCC2)cc(-c2cccc(C(F)(F)F)c2)n1    bioavailability             23

* * *

assay: Half life in rat plasma; assay type: ADME, cell-free
PROPERTY_MEASURED: half-life

> print(dat)
                    compound.string    result
1  N#Cc1nc(NC2CCCCC2)nc(N2CCNCC2)n1  < 17 min

* * *

assay: Half life in mouse microsomes; format: ADME, Microsome
PROPERTY_MEASURED: half-life (min)

> print(dat)
                    compound.string  result.number
1  N#Cc1nc(NC2CCCCC2)nc(N2CCNCC2)n1              4

* * *

assay: Half life in Sprague-Dawley rat at 2 mg/kg, iv and 10 mg/kg, po; type: ADME, organism-based; conditions: in vivo
Entries and their half-life values follow.
PROPERTY_MEASURED: half-life (h)

> print(dat)
                            compound.string  result.number
1  CCC(CC)NCCCc1cc(-c2cccc(C(F)(F)F)c2)nc(C#N)n1            3.5
2  CC(C)(C)NCCCc1cc(-c2cccc(C(F)(F)F)c2)nc(C#N)n1            5.7
3  N#Cc1nc(CCCN2CCCCC2)cc(-c2cccc(C(F)(F)F)c2)n1            4.1

* * *

assay: AUC (infinity) in Sprague-Dawley rat at 2 mg/kg, iv and 10 mg/kg, po; type: ADME, organism-based; conditions: plasma
PROPERTY_MEASURED: AUC(0-inf) (µg·h/mL)

> print(dat)
                    compound.string  result.number
1  N#Cc1nc(NC2CCCCC2)nc(N2CCNCC2)n1          0.064

* * *

target: Voltage-gated inwardly rectifying potassium channel KCNH2 (Homo sapiens); assay: Displacement of [3H]dofetilide from human ERG expressed in HEK293 cells
Sequence (Q12809 whole entry): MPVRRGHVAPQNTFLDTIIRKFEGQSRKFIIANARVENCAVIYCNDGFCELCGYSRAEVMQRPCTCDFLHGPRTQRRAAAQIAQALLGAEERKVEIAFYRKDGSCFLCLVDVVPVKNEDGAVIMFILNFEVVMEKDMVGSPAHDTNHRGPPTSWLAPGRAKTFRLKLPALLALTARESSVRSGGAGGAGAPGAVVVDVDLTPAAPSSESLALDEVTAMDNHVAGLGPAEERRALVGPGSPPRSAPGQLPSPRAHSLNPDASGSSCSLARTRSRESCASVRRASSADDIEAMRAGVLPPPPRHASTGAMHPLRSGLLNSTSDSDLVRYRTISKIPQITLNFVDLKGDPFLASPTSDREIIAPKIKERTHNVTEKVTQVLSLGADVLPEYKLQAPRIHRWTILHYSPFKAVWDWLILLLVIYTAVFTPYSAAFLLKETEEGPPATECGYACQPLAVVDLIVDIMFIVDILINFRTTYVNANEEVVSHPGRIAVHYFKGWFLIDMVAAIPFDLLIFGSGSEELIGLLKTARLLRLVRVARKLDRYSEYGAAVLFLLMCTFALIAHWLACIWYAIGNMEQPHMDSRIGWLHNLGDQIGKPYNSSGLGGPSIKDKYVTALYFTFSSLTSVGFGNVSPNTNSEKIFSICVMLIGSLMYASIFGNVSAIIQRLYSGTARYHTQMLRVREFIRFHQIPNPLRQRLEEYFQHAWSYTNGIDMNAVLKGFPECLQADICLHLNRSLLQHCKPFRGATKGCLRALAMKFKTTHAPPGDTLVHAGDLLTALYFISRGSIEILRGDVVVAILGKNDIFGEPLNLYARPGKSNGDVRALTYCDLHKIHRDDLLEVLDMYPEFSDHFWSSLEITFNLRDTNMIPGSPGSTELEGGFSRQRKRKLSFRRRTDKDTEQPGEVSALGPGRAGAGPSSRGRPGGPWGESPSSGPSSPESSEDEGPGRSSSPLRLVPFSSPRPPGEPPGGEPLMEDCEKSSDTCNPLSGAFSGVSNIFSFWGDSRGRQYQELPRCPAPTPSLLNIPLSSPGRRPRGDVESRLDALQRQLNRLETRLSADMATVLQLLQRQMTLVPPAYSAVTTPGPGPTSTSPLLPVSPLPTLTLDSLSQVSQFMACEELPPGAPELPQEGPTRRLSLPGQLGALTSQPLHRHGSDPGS
pIC50: −log10 of the molar value.
Entries and their pIC50 values follow.
PROPERTY_MEASURED: pIC50

> print(dat)
                            compound.string                         system.under.test  property.measured  result.number
1  N#Cc1nc(CCCN2CCCCC2)cc(-c2cccc(C(F)(F)F)c2)n1  Voltage-gated inwardly rectifying potassium channel KCNH2 (Homo sapiens)              pIC50           6.80
2  CC(C)(C)NCCCc1cc(-c2cccc(C(F)(F)F)c2)nc(C#N)n1  Voltage-gated inwardly rectifying potassium channel KCNH2 (Homo sapiens)              pIC50           5.96
